Target: KCC2 (Homo sapiens)
Sequence (Q9H2X9 1-1139): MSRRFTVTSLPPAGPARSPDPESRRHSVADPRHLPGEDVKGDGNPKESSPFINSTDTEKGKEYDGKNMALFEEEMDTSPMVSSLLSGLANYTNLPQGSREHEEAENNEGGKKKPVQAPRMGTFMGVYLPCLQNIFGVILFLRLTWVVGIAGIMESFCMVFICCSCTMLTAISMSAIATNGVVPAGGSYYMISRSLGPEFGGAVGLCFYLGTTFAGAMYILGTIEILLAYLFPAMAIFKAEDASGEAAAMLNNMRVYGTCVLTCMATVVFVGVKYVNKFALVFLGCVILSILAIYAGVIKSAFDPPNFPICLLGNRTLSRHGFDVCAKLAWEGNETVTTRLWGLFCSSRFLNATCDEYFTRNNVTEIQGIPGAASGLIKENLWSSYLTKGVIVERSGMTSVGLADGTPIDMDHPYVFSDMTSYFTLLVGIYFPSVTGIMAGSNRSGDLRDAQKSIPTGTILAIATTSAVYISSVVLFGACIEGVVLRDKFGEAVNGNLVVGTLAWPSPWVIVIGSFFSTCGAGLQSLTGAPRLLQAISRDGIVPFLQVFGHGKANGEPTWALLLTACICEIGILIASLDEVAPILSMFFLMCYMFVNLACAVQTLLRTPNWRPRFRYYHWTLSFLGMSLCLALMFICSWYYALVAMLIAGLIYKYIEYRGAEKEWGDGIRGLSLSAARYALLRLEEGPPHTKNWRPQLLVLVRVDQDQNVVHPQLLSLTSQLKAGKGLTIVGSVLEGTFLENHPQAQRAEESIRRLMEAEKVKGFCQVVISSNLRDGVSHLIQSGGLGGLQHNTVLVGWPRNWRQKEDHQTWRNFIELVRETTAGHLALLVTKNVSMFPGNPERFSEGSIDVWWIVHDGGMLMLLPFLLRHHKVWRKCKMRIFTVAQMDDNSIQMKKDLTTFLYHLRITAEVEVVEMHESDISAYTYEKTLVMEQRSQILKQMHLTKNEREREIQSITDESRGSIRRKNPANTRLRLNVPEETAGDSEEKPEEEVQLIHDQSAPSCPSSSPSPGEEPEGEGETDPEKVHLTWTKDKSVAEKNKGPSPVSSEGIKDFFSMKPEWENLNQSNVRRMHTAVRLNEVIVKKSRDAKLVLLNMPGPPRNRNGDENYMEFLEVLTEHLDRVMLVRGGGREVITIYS
Assay: KCC2 thallium transport FLIPR-based assay (Tl+ influx in HEK293 cells expressing KCC2)
Conditions: 90 min compound incubation at RT, thallium flux at 120 s used to determine EC50
pEC50: −log10 of the molar value.
readout: pEC50

Here is how some compounds turned out for pEC50.
compound: CN1CCC(N2Cc3nc(N4CCOC(C5CC5)C4)nc(Nc4ccc(C5CCCCC5)cc4)c3C2)CC1 (centres unmarked)
pEC50: 5.45

compound: CC(C)N1Cc2c(Nc3ccc(C4CCCCC4)cc3)nc(C3=CCOCC3)nc2C1=O
pEC50: 5.94

compound: CCCCCc1ccc(Nc2nc(N3CCO[C@H](C)C3)nc3c2CN(C(C)C)C3=O)cc1
pEC50: 5.64

(1) CCN(CC)c1nc(Nc2ccc(C(C)C)cc2)c2c(n1)C(=O)N(C(C)C)C2
(2) CC(C)N1Cc2c(Nc3ccc(OCc4ccccc4)cc3)nc(N3CCO[C@H](C)C3)nc2C1=O
Lab note: check whether 1 or 2 shows the higher recorded pEC50. Choose, then provide that item's label.
1
(1: 5.77, 2: 5.44)
